Values from patent US20220259289A1

Molecular target: T1, human serum albumin (human, UniProt P02768 25-609)
T1 construct: Negative control of the ELISA; also called HSA
T1 sequence (P02768 25-609 limits assumed): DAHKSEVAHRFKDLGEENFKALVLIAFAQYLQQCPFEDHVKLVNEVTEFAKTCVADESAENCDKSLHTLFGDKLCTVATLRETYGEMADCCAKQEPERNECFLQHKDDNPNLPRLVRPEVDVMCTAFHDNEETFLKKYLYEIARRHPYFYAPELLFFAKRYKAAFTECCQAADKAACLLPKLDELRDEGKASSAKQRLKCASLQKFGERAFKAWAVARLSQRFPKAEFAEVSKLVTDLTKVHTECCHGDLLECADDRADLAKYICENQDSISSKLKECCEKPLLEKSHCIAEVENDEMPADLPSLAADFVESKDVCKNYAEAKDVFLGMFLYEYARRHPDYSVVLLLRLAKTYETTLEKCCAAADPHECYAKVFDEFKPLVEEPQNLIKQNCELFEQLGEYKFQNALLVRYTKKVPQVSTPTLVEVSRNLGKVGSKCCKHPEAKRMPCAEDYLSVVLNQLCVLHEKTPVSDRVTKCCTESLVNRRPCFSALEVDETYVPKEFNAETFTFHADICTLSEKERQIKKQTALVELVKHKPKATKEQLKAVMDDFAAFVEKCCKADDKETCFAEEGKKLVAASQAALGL
Assay: ELISA, negative control HSA
Attribute: ELISA HSA (RLU)
Entry rule: numbers only, all in RLU.

// known answers, use as guide
ISOP193ER9P1E1 (designed binder, not shown: small tags and cut ends) LPAPKNLVVSRVTEDSARLSWTAPDAAFDSFDIYYFEHPVGGEAIVLTVPGSERSYDLTGLKPGTEYLVTIYGVKGGSVSIPLSAIFTT = 560
ISOP193FR9P1H9 (designed binder, not shown: small tags and cut ends) LPAPKNLVVSRVTEDSARLSWTAPDAAFDSFEIYYDELRNPGEAIVLTVPGSERSYDLTGLKPGTEYAVTIYGVKGGRYSPPLSAIFTT = 800
ISOP193AR9P1C10 (designed binder, not shown: small tags and cut ends) LPAPKNLVVSRVTEDSARLSWPNHISIFDSFLIQYQESEKVGEAIVLTVPGSERSYDLTGLKPGTEYTVSIYGVGRFYTVFDSNPLSAIFTT = 960
ISOP193ER9P1A3 (designed binder, not shown: small tags and cut ends) LPAPKNLVVSRVTEDSARLSWTTPDAAFDSFDIYYFEHPVGGEAIVLTVPGSERSYDLTGLKPGTEYLVTIYGVKGGYLSKPLSAIFTT = 880

Which ELISA HSA (RLU) value is on record for ISOP193BR9P1B10 (designed binder, not shown: small tags and cut ends) LPAPKNLVVSRVTEDSARLSWAWNRHDFDSFLIQYQESEKVGEAIVLTVPGSERSYDLTGLKPGTEYTVSIYGVHWTVLRPFIDSNPLSAIFTT ?
1200

Given the binder ISOP193AR9P1B10 (designed binder, not shown: small tags and cut ends) LPAPKNLVVSRVTEDSARLSWAFQWHIFDSFLIQYQESEKVGEAIVLTVPGSERSYDLTGLKPGTEYTVSIYGVGRHYTVYDSNPLSAIFTT , what is its reported ELISA HSA (RLU)?
480

Reported ELISA HSA (RLU), binder ISOP193BR9P1H6 (designed binder, not shown: small tags and cut ends) LPAPKNLVVSRVTEDSARLSWPDESRPVRFDSFLIQYQESEKVGEAIVLTVPGSERSYDLTGLKPGTEYTVSIYGVVGQWKYATADSNPLSAIFTT : ____
2880

// query ELISA HSA (RLU) value for entry ISOP193BR9P1G3 (designed binder, not shown: small tags and cut ends) LPAPKNLVVSRVTEDSARLSWAQSNQQFDSFLIQYQESEKVGEAIVLTVPGSERSYDLTGLKPGTEYTVSIYGVVWQNWVAYNSNPLSAIFTT
640

Report ELISA HSA (RLU) for ISOP193FR9P1E1 (designed binder, not shown: small tags and cut ends) LPAPKNLVVSRVTEDSARLSWTAPDAAFDSFIIRYLEDISYGEAIVLTVPGSERSYDLTGLKPGTEYHVGIEGVKGGNVSWPLSAIFTT please.
880

Which measured ELISA HSA (RLU) value corresponds to ISOP193BR9P1G2 (designed binder, not shown: small tags and cut ends) LPAPKNLVVSRVTEDSARLSWAGHYRKIRNFDSFLIQYQESEKVGEAIVLTVPGSERSYDLTGLKPGTEYTVSIYGVAEHWYYATQDSNPLSAIFTT ?
2160

Give its ELISA HSA (RLU) value. Item: ISOP193ER9P1F11 (designed binder, not shown: small tags and cut ends) LPAPKNLVVSRVTEDSARLSWTAPDAAFDSFAIQYQEYVAHGEAIVLTVPGSERSYDLTGLKPGTEYHVRISGVKGGGVSWPLSAISTT
400

Suppose we examine the binder ISOP193GR9P1H2 (designed binder, not shown: small tags and cut ends) LPAPKNLVVSRVTEDSARLSWTAPDAAFDSFEIPYIEVETIGEAIWLHVPGSERSYDLTGLKPGTEYSVGINGVKGGHTSNPLSARFTT ; what ELISA HSA (RLU) value has been reported?
640

Entry ISOP193AR9P1B4 (designed binder, not shown: small tags and cut ends) LPAPKNLVVSRVTEDSARLSWRDLQYHTFDSFLIQYQESEKVGEAIVLTVPGSERSYDLTGLKPGTEYTVSIYGVGRHYTVYDSNPLSAIFTT : reported ELISA HSA (RLU) = ?
480

For ISOP193AR9P1A11 (designed binder, not shown: small tags and cut ends) LPAPKNLVVSRVTEDSARLSWALSSVHAYFDSFLIQYQESEKVGEAIVLTVPGSERSYDLTGLKPGTEYTVSIYGVQYVDGFFKSNPLSAIFTT , what is its reported ELISA HSA (RLU)?
320

For the binder ISOP193ER9P1B5 (designed binder, not shown: small tags and cut ends) LPAPKNLVVSRVTEDSARLSWTAPDAAFDSFAIQYQEYVAHGEAIVLTVPGSERSYDLTGLKPGTEYHVRISGVKGGGVSWPLSAIVTT , what ELISA HSA (RLU) is on record?
400

Would you kindly share the measured ELISA HSA (RLU) for ISOP193BR9P1B12 (designed binder, not shown: small tags and cut ends) LPAPKNLVVSRVTEDSARLSWPDESRPVRFDSFLIQYQESEKVGEAIVLTVPGSERSYDLTGLKPGTEYTVSIYGVLRPWIYATNDSNPLSAIFTT ?
2880

Sample ISOP193HR9P1E8 (designed binder, not shown: small tags and cut ends) LPAPKNLVVSRVTEDSARLSWTAPDAAFDSFDIYYYELRLGGEAIVLTVPGSERSYDLTGLKPGTEYLVTIYGVKGGDYSPPLSAIFTT — what was its ELISA HSA (RLU)?
1520
